Hello, the source for this data is the supplement of paper PMC10567573, in case you need it.

- Test description: protein stability index of a GFP-peptide fusion (GPS, HEK-293T) (PSI 1-6); higher = more stable;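 also: 24-mer peptide tiles fused after GFP, lentivirally expressed, FACS-sorted into six equal bins by GFP/DsRed ratio, decoded by Illumina sequencing, PSI is the read-weighted mean bin number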
- Measurement context: treatment: MLN4924 1 uM, 8 h; c terminus: a fixed tail appended
Property label: protein stability index

sequence_record="VVTLWYRAPEVLLQSTYATPVDMW [CDK4]" observed_measurement=3.07
sequence_record="MNNAQRIEKWVILEKDFSIYGGEL [ACSBG2]" observed_measurement=2.28
sequence_record="ELDGPKQIFFGRRKDMIAEKLAPS [ZNF396]" observed_measurement=3.62
sequence_record="FMEERELLGQDEETAMRKSLGEEE [RSPH3]" observed_measurement=5.46
sequence_record="SQSPSVSQLSVLSLSGVMLTDVSP [PRAME]" observed_measurement=3
sequence_record="NTVERYNPQENRWHTIAPMGTRRK [KLHL20]" observed_measurement=4.59
sequence_record="SRYLGDSGLDDFFLDIDTSAVEKE [SERTAD3]" observed_measurement=4.9
sequence_record="LHSACGLSKDHQEVETEGPESADT [TOR1AIP2]" observed_measurement=5.53
sequence_record="PETMTCRLSNNQRYLFLDGDSHYE [ZFYVE21]" observed_measurement=2.8
sequence_record="PIDGTTNFVHRFPFVAVSIGFAVN [IMPA1]" observed_measurement=2.39
sequence_record="ERSQVRGSAPPRATPGGGTGEAAR [PCDHGC5]" observed_measurement=5.4
sequence_record="FSHITSARKARKYEIPHFRLKKVE [PHTF1]" observed_measurement=2.82
sequence_record="VPVQPLLPESLARSLLPSTEYQKQ [FBF1]" observed_measurement=4.58
